Recorded measurements of % Inhib. of IL-5 production, TSLP treated human PBMC + IL-2 + IL-25, Expt. 1, one per entry
- target: human IL-17RA (human, UniProt Q96F46 33-866)
- testName: cell-based or functional assay
// units = %; emit number, no label

Past entries and their recorded results:
binder	readoutValue
2.225.1 (antibody, V domains shown) VH: QVQLVQSGVEVKKPGASVKVSCKASGYTLTRYGISWVRQAPGQGLEWMGWISAYNGNTNYAQKLQGRVTMTTDTSTSTAYMELRSLRSDDTAVYYCARRDYDILTGYYNGFDPWGQGTLVTVSS VL: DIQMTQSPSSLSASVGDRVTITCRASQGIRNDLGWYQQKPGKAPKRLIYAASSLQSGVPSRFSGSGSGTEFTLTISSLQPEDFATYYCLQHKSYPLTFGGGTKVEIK	0
2.67.1 (antibody, V domains shown) VH: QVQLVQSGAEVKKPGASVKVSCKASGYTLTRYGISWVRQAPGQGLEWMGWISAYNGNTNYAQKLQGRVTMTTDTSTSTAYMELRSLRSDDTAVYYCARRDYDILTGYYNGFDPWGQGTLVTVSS VL: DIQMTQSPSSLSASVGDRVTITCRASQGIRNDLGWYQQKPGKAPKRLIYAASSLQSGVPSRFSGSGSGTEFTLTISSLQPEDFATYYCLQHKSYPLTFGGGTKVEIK	0

# ---- query binder ----
Ask | Recall and state the measured % Inhib. of IL-5 production, TSLP treated human PBMC + IL-2 + IL-25, Expt. 1 for 3.1545.1 (antibody, V domains shown) VH: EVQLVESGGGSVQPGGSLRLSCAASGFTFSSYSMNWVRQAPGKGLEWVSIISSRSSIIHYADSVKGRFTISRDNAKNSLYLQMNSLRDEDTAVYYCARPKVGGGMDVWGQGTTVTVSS VL: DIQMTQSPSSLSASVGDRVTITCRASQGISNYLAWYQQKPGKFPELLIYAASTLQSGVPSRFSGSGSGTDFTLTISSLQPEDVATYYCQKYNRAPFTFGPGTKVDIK .
Reply | 0
